System: HeLa Kyoto
Assay: solubility change mitosis vs G1/S (difference of NP-40 vs SDS log2 ratios) (log2 ratio difference); higher = more soluble in mitosis
solubility change mitosis (log2) for assorted sequences

| sequence-entry | solubility change mitosis (log2) |
| --- | --- |
| MERAVPLAVPLGQTEVFQALQRLHMTIFSQSVSPCGKFLAAGNNYGQIAIFSLSSALSSEAKEESKKPVVTFQAHDGPVYSMVSTDRHLLSAGDGEVKAWLWAEMLKKGCKELWRRQPPYRTSLEVPEINALLLVPKENSLILAGGDCQLHTMDLETGTFTRVLRGHTDYIHCLALRERSPEVLSGGEDGAVRLWDLRTAKEVQTIEVYKHEECSRPHNGRWIGCLATDSDWMVCGGGPALTLWHLRSSTPTTIFPIRAPQKHVTFYQDLILSAGQGRCVNQWQLSGELKAQVPGSSPGLLSLSLNQQPAAPECKVLTAAGNSCRVDVFTNLGYRAFSLSF [THOC6] | 0.108 |
| MAGEEINEDYPVEIHEYLSAFENSIGAVDEMLKTMMSVSRNELLQKLDPLEQAKVDLVSAYTLNSMFWVYLATQGVNPKEHPVKQELERIRVYMNRVKEITDKKKAGKLDRGAASRFVKNALWEPKSKNASKVANKGKSKS [C1D] | 0.679 |
| MSGGLLKALRSDSYVELSQYRDQHFRGDNEEQEKLLKKSCTLYVGNLSFYTTEEQIYELFSKSGDIKKIIMGLDKMKKTACGFCFVEYYSRADAENAMRYINGTRLDDRIIRTDWDAGFKEGRQYGRGRSGGQVRDEYRQDYDAGRGGYGKLAQNQ [NCBP2] | 0.26 |
| MGVEGCTKCIKYLLFVFNFVFWLAGGVILGVALWLRHDPQTTNLLYLELGDKPAPNTFYVGIYILIAVGAVMMFVGFLGCYGAIQESQCLLGTFFTCLVILFACEVAAGIWGFVNKDQIAKDVKQFYDQALQQAVVDDDANNAKAVVKTFHETLDCCGSSTLTALTTSVLKNNLCPSGSNIISNLFKEDCHQKIDDLFSGKLYLIGIAAIVVAVIMIFEMILSMVLCCGIRNSSVY [CD81] | -0.0908 |
| MAVVPLLLLGGLWSAVGASSLGVVTCGSVVKLLNTRHNVRLHSHDVRYGSGSGQQSVTGVTSVDDSNSYWRIRGKSATVCERGTPIKCGQPIRLTHVNTGRNLHSHHFTSPLSGNQEVSAFGEEGEGDYLDDWTVLCNGPYWVRDGEVRFKHSSTEVLLSVTGEQYGRPISGQKEVHGMAQPSQNNYWKAMEGIFMKPSELLKAEAHHAEL [SDF2] | -0.129 |
| MPLGLKPTCSVCKTTSSSMWKKGAQGEILCHHCTGRGGAGSGGAGSGAAGGTGGSGGGGFGAATFASTSATPPQSNGGGGGKQSKQEIHRRSARLRNTKYKSAPAAEKKVSTKGKGRRHIFKLKNPIKAPESVSTIITAESIFYKGVYYQIGDVVSVIDEQDGKPYYAQIRGFIQDQYCEKSAALTWLIPTLSSPRDQFDPASYIIGPEEDLPRKMEYLEFVCHAPSEYFKSRSSPFPTVPTRPEKGYIWTHVGPTPAITIKESVANHL [GATAD1] | 0.25 |
| MAVSESQLKKMVSKYKYRDLTVRETVNVITLYKDLKPVLDSYVFNDGSSRELMNLTGTIPVPYRGNTYNIPICLWLLDTYPYNPPICFVKPTSSMTIKTGKHVDANGKIYLPYLHEWKHPQSDLLGLIQVMIVVFGDEPPVFSRPISASYPPYQATGPPNTSYMPGMPGGISPYPSGYPPNPSGYPGCPYPPGGPYPATTSSQYPSQPPVTTVGPSRDGTISEDTIRASLISAVSDKLRWRMKEEMDRAQAELNALKRTEEDLKKGHQKLEEMVTRLDQEVAEVDKNIELLKKKDEELSSALEKMENQSENNDIDEVIIPTAPLYKQILNLYAEENAIEDTIFYLGEALRRGVIDLDVFLKHVRLLSRKQFQLRALMQKARKTAGLSDLY [TSG101] | -0.0618 |
| MSLEDPFFVVRGEVQKAVNTARGLYQRWCELLQESAAVGREELDWTTNELRNGLRSIEWDLEDLEETIGIVEANPGKFKLPAGDLQERKVFVERMREAVQEMKDHMVSPTAVAFLERNNREILAGKPAAQKSPSDLLDASAVSATSRYIEEQQATQQLIMDEQDQQLEMVSGSIQVLKHMSGRVGEELDEQGIMLDAFAQEMDHTQSRMDGVLRKLAKVSHMTSDRRQWCAIAVLVGVLLLVLILLFSL [STX10] | -0.107 |
| MFVARSIAADHKDLIHDVSFDFHGRRMATCSSDQSVKVWDKSESGDWHCTASWKTHSGSVWRVTWAHPEFGQVLASCSFDRTAAVWEEIVGESNDKLRGQSHWVKRTTLVDSRTSVTDVKFAPKHMGLMLATCSADGIVRIYEAPDVMNLSQWSLQHEISCKLSCSCISWNPSSSRAHSPMIAVGSDDSSPNAMAKVQIFEYNENTRKYAKAETLMTVTDPVHDIAFAPNLGRSFHILAIATKDVRIFTLKPVRKELTSSGGPTKFEIHIVAQFDNHNSQVWRVSWNITGTVLASSGDDGCVRLWKANYMDNWKCTGILKGNGSPVNGSSQQGTSNPSLGSTIPSLQNSLNGSSAGRKHS [SEH1L] | 0.295 |
| MADEELEALRRQRLAELQAKHGDPGDAAQQEAKHREAEMRNSILAQVLDQSARARLSNLALVKPEKTKAVENYLIQMARYGQLSEKVSEQGLIEILKKVSQQTEKTTTVKFNRRKVMDSDEDDDY [PDCD5] | 0.568 |
| MDGETAEEQGGPVPPPVAPGGPGLGGAPGGRREPKKYAVTDDYQLSKQVLGLGVNGKVLECFHRRTGQKCALKLLYDSPKARQEVDHHWQASGGPHIVCILDVYENMHHGKRCLLIIMECMEGGELFSRIQERGDQAFTEREAAEIMRDIGTAIQFLHSHNIAHRDVKPENLLYTSKEKDAVLKLTDFGFAKETTQNALQTPCYTPYYVAPEVLGPEKYDKSCDMWSLGVIMYILLCGFPPFYSNTGQAISPGMKRRIRLGQYGFPNPEWSEVSEDAKQLIRLLLKTDPTERLTITQFMNHPWINQSMVVPQTPLHTARVLQEDKDHWDEVKEEMTSALATMRVDYDQVKIKDLKTSNNRLLNKRRKKQAGSSSASQGCNNQ [MAPKAPK3] | -0.141 |

---

Tested on: HeLa Kyoto
Test: thermal stability score vs G1/S (z-score of summed log2 fold changes over temperatures); higher = more thermally stable than in G1/S
Conditions: cell cycle stage: early G1 (4.5 h after nocodazole release)

| sequence-entry | thermal stability score |
| --- | --- |
| MSLEDPFFVVRGEVQKAVNTARGLYQRWCELLQESAAVGREELDWTTNELRNGLRSIEWDLEDLEETIGIVEANPGKFKLPAGDLQERKVFVERMREAVQEMKDHMVSPTAVAFLERNNREILAGKPAAQKSPSDLLDASAVSATSRYIEEQQATQQLIMDEQDQQLEMVSGSIQVLKHMSGRVGEELDEQGIMLDAFAQEMDHTQSRMDGVLRKLAKVSHMTSDRRQWCAIAVLVGVLLLVLILLFSL [STX10] | 2.01 |
| MEEIYAKFVSQKISKTRWRPLPPGSLQTAETFATGSWDNEENYISLWSIGDFGNLDSDGGFEGDHQLLCDIRHHGDVMDLQFFDQERIVAASSTGCVTVFLHHPNNQTLSVNQQWTTAHYHTGPGSPSYSSAPCTGVVCNNPEIVTVGEDGRINLFRADHKEAVRTIDNADSSTLHAVTFLRTPEILTVNSIGQLKIWDFRQQGNEPSQILSLTGDRVPLHCVDRHPNQQHVVATGGQDGMLSIWDVRQGTMPVSLLKAHEAEMWEVHFHPSNPEHLFTCSEDGSLWHWDASTDVPEKSSLFHQGGRSSTFLSHSISNQANVHQSVISSWLSTDPAKDRIEITSLLPSRSLSVNTLDVLGPCLVCGTDAEAIYVTRHLFS [NUP43] | -1.7 |
| MAAVKDSCGKGEMATGNGRRLHLGIPEAVFVEDVDSFMKQPGNETADTVLKKLDEQYQKYKFMELNLAQKKRRLKGQIPEIKQTLEILKYMQKKKESTNSMETRFLLADNLYCKASVPPTDKVCLWLGANVMLEYDIDEAQALLEKNLSTATKNLDSLEEDLDFLRDQFTTTEVNMARVYNWDVKRRNKDDSTKNKA [VBP1] | -3.96 |

---

Listing: solubility change mitosis (log2) of selected sequences
Test system: HeLa Kyoto
Assay: solubility change mitosis vs G1/S (difference of NP-40 vs SDS log2 ratios) (log2 ratio difference); higher = more soluble in mitosis
reported-metric: solubility change mitosis (log2)

| sequence-entry | assayed-target | reported-metric | value-measured |
| --- | --- | --- | --- |
| MGFWCRMSENQEQEEVITVRVQDPRVQNEGSWNSYVDYKIFLHTNSKAFTAKTSCVRRRYREFVWLRKQLQRNAGLVPVPELPGKSTFFGTSDEFIEKRRQGLQHFLEKVLQSVVLLSDSQLHLFLQSQLSVPEIEACVQGRSTMTVSDAILRYAMSNCGWAQEERQSSSHLAKGDQPKSCCFLPRSGRRSSPSPPPSEEKDHLEVWAPVVDSEVPSLESPTLPPLSSPLCCDFGRPKEGTSTLQSVRRAVGGDHAVPLDPGQLETVLEK [SNX11] | HeLa Kyoto | solubility change mitosis (log2) | -0.17 |
| MKQLPVLEPGDKPRKATWYTLTVPGDSPCARVGHSCSYLPPVGNAKRGKVFIVGGANPNRSFSDVHTMDLGKHQWDLDTCKGLLPRYEHASFIPSCTPDRIWVFGGANQSGNRNCLQVLNPETRTWTTPEVTSPPPSPRTFHTSSAAIGNQLYVFGGGERGAQPVQDTKLHVFDANTLTWSQPETLGNPPSPRHGHVMVAAGTKLFIHGGLAGDRFYDDLHCIDISDMKWQKLNPTGAAPAGCAAHSAVAMGKHVYIFGGMTPAGALDTMYQYHTEEQHWTLLKFDTLLPPGRLDHSMCIIPWPVTCASEKEDSNSLTLNHEAEKEDSADKVMSHSGDSHEESQTATLLCLVFGGMNTEGEIYDDCIVTVVD [RABEPK] | HeLa Kyoto | solubility change mitosis (log2) | -0.084 |
| MATELEYESVLCVKPDVSVYRIPPRASNRGYRASDWKLDQPDWTGRLRITSKGKTAYIKLEDKVSGELFAQAPVEQYPGIAVETVTDSSRYFVIRIQDGTGRSAFIGIGFTDRGDAFDFNVSLQDHFKWVKQESEISKESQEMDARPKLDLGFKEGQTIKLCIGNITNKKGGASKPRTARGGGLSLLPPPPGGKVTIPPPSSSVAISNHVTPPPIPKSNHGGSDADILLDLDSPAPVTTPAPTPVSVSNDLWGDFSTASSSVPNQAPQPSNWVQF [NECAP1] | HeLa Kyoto | solubility change mitosis (log2) | -0.274 |

The measurements presented in this section are drawn from the supplement of paper PMC5998384.
